# System: WHIM2 (cells of a triple-negative basal-like breast cancer xenograft)
# procedureDetails: cell viability (% of vehicle); higher = less cytotoxic;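 note: PDX cells carrying CMV promoter-driven luciferase, viability read as total photon flux per second by IVIS imaging following D-luciferin, vehicle control 0.1% DMSO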
# conditionsUsed: 10 µM; 72 h
attributeMeasured: cell viability
Answer with a bare number; do not write a unit.

[ask] I would be grateful if you could share the reported cell viability for Oc1c(Br)cc(Br)c2cccnc12 .
[reply] 146

[ask] What value of cell viability has been recorded for this entry: COc1nc(C)cnc1NS(=O)(=O)c1cccnc1-c1ccc(-c2nnco2)cc1 [Zibotentan (ZD4054)]
[reply] 85.7

[ask] Field request: cell viability | item: O=C1C(=O)c2ccccc2C(O)=C1C1CCC(c2ccc(Cl)cc2)CC1 (stereo not drawn)
[reply] 99.7

====

# Test system: HCI03 (cells of an ER-positive luminal breast cancer xenograft)
# procedureDetails: cell viability (% of vehicle); higher = less cytotoxic
# conditionsUsed: 10 µM; 72 h
Where a name gives a salt, the structure may show the parent alone.
Can you tell me cell viability for the items I'm about to list?
Format: numeric value only, no unit, no commentary.

[ask] What cell viability appears in the records for this compound with HCI03? NC(=O)N1CCC(CC(=O)N2CCC(C3c4ncc(Br)cc4CCc4cc(Cl)cc(Br)c43)CC2)CC1 (stereo not given)
[reply] 121

[ask] cell viability of O=C(O)C1=CC(=NNc2ccc(S(=O)(=O)Nc3ccccn3)cc2)C=CC1=O on HCI03?
[reply] 124

[ask] Which cell viability is reported with HCI03 for this entry: O=C(O)/C=C/c1ccc(O)c(O)c1 ?
[reply] 115

[ask] API: value(readout= cell viability, system= HCI03, query= O=C([O-])Cc1ccccc1Nc1c(Cl)cccc1Cl.[Na+] [Diclofenac Sodium] )
[reply] 120

[ask] Form field - read-out: cell viability; system: HCI03; submitted item: CCCC(=O)OCOC(=O)C1=C(C)NC(C)=C(C(=O)OC)C1c1cccc(Cl)c1Cl (stereo not given) [Clevidipine Butyrate]
[reply] 126

[ask] # get_value(readout= cell viability, system= HCI03) for CCCC1CC(C(=O)NC(C(C)Cl)C2OC(SC)C(O)C(O)C2O)N(C)C1 (stereo not given)
[reply] 124

[ask] Observed cell viability on HCI03 for CC(O)C1C(=O)N2C(C(=O)OCOC(=O)C(C)(C)C)=C(SC3CN(C4=NCCS4)C3)C(C)C12 (stereo not given) , please.
[reply] 110

[ask] Tell me reported cell viability for Nc1ccn([C@@H]2O[C@H](CO)[C@@H](O)C2(F)F)c(=O)n1 [Gemcitabine HCl] , tested with HCI03.
[reply] 109

[ask] Given the entry COc1cc2nccc(Oc3ccc(NC(=O)C4(C(=O)Nc5ccc(F)cc5)CC4)cc3)c2cc1OC.O=C(O)CC(O)C(=O)O [Cabozantinib malate (XL184)] , what cell viability was observed with HCI03?
[reply] 45.4

[ask] Fill in the recorded cell viability for this compound, with HCI03 as test system: CNC(=C[N+](=O)[O-])NCCSCc1ccc(CN(C)C)o1.Cl
[reply] 125

[ask] Quick check: cell viability on HCI03, item CC(=O)N=c1sc(S(N)(=O)=O)nn1C [Methazolamide] ?
[reply] 114

[ask] # get_value(readout= cell viability, system= HCI03) for CO[C@@]1(NC(=O)[C@H](C(=O)[O-])c2ccc(O)cc2)C(=O)N2C(C(=O)[O-])=C(CSc3nnnn3C)CO[C@@H]21.[Na+].[Na+] [Moxalactam (sodium salt)]
[reply] 120

[ask] Give recorded cell viability with HCI03 for the following compound: O=C(O)c1ccc2ccccc2c1O.OCc1cc(C(O)CNCCCCCCOCCCCc2ccccc2)ccc1O (stereo not given) [Salmeterol xinafoate]
[reply] 92.5

[ask] Lookup: cell viability / HCI03 / CC12C=CC(=O)C=C1CCC1C2C(O)CC2(C)C1CCC2(O)C(=O)CO (stereo not given)
[reply] 175

[ask] Missing value: cell viability, HCI03, entry CCCCN1CCCCC1C(=O)Nc1c(C)cccc1C.Cl (stereo not given) [Levobupivacaine HCl] . Fill in?
[reply] 101

====

# Tested on: HCI01 (cells of a triple-negative basal-like breast cancer xenograft)
# procedureDetails: cell viability (% of vehicle); higher = less cytotoxic
# conditionsUsed: 10 µM; 72 h
Assign labels as follows, please: t for cell viability below 100; f for cell viability equal to or exceeding 100.

[ask] Hello, I'm reviewing records and need to know if cell viability of CCOc1nc2cccc(C(=O)O)c2n1Cc1ccc(-c2ccccc2-c2nc(=O)o[nH]2)cc1 is below 100. Could you check?
[reply] t

[ask] Lab log: compare recorded cell viability with 100; is it strictly lower for C1=C\COCc2cc(ccc2OCCN2CCCC2)Nc2nccc(n2)-c2cccc(c2)COC/1 ?
[reply] t

[ask] Strictly below 100: is that where cell viability of CC(C)(C(=O)O)c1ccc(C(O)CCCN2CCC(C(O)(c3ccccc3)c3ccccc3)CC2)cc1.Cl (configuration not stated) [Fexofenadine HCl] sits?
[reply] f

[ask] Threshold test, cell viability < 100: CN(C)CCN(Cc1ccccc1)c1ccccn1.Cl [Tripelennamine HCl]
[reply] t

[ask] I'd appreciate it if you could check whether COc1cc2nc(N3CCN(C(=O)C4CCCO4)CC3)nc(N)c2cc1OC.Cl.O.O (configuration not stated) [Terazosin HCl] has cell viability smaller than 100.
[reply] f

[ask] Regarding Nc1nc(CC(=O)Nc2ccc(CCNCC(O)c3ccccc3)cc2)cs1 (configuration not stated) , kindly confirm whether its cell viability is beneath 100.
[reply] f

[ask] Just wondering, is cell viability of CN1CCN(CCCN2c3ccccc3Sc3ccc(C(F)(F)F)cc32)CC1.Cl.Cl [Trifluoperazine 2HCl] below 100?
[reply] t

[ask] Confirm or reject: cell viability of CN(C)CCCOc1nn(Cc2ccccc2)c2ccccc12.Cl [Benzydamine HCl] lies strictly below 100
[reply] f

[ask] Consider CCN(CC)CC(=O)Nc1c(C)cccc1C . Does its cell viability lie strictly below 100?
[reply] f

[ask] Given CN(C)c1nc(N(C)C)nc(N(C)C)n1 , is recorded cell viability strictly lower than 100?
[reply] t

[ask] Regarding COc1ccccc1N1CCN(CCCNc2cc(=O)n(C)c(=O)n2C)CC1.Cl [Urapidil HCl] , kindly confirm whether its cell viability is beneath 100.
[reply] t

[ask] Confirm or reject: cell viability of CC(NCCc1ccc(O)cc1)C(O)c1ccc(O)cc1.Cl (configuration not stated) [Ritodrine HCl] lies strictly below 100
[reply] f

[ask] Given the entry CC(C)(C)C(=O)C(Oc1ccc(Cl)cc1)n1ccnc1 (configuration not stated) , would its reported cell viability be below 100?
[reply] f

[ask] Criterion: cell viability strictly below 100. Is it met by Cl.N=C(N=C(N)N)N1CCOCC1 [Moroxydine HCl] ?
[reply] t

[ask] I wonder whether O=C(CS(=O)Cc1ccco1)NCC=CCOc1cc(CN2CCCCC2)ccn1 (configuration not stated) has cell viability below 100. Can you tell?
[reply] f

[ask] In plain terms, does Cn1c([N+](=O)[O-])cnc1COC(N)=O come in under 100 for cell viability?
[reply] t

[ask] # strict comparison: is reported cell viability < 100? input = Cc1[nH]c(=O)c(C#N)cc1-c1ccncc1
[reply] f

[ask] Lab note: confirm whether the reported cell viability for this compound is below 100, equality not counting. compound: CCOC(=O)C1=C[C@]2(CC)CCCN3CCc4c(n1c1ccccc41)[C@@H]32
[reply] f

[ask] Strictly below 100: is that where cell viability of COc1nc(N)nc2c1ncn2C1OC(CO)C(O)C1O (configuration not stated) sits?
[reply] f

[ask] Take the compound CC12CCC(O)CC1=CCC1C2CCC2(C)C(c3cccnc3)=CCC12 (configuration not stated) and say whether its cell viability is less than 100.
[reply] f

[ask] Is cell viability strictly under 100 for the entry N.N.[Cl][Pt+2][Cl] [Cisplatin] ?
[reply] f

[ask] Please determine if N#Cc1ccc(C(c2ccc(C#N)cc2)n2cncn2)cc1 is below 100 in terms of cell viability.
[reply] f

[ask] Please let me know if COc1cccc2c1C(=O)c1c(O)c3c(c(O)c1C2=O)CC(O)(C(=O)CO)CC3OC1CC(N)C(O)C(C)O1 (configuration not stated) shows cell viability below 100.
[reply] t

[ask] Does the reported cell viability of the following compound sit strictly below 100? CS(=O)(=O)O.Cc1ccc(N(CC2=NCCN2)c2cccc(O)c2)cc1 [Phentolamine Mesylate]
[reply] f

[ask] Does this compound meet the criterion cell viability < 100? CCn1cc(C(=O)O)c(=O)c2ccc(C)nc21
[reply] t

[ask] Consider the compound C=CC(=O)N1CCC(Oc2cc3c(Nc4ccc(Cl)c(Cl)c4F)ncnc3cc2OC)CC1 . Is its cell viability strictly less than 100?
[reply] t

[ask] Is 100 strictly greater than the compound's reported cell viability? compound: NCC1OC(OC2C(CO)OC(OC3C(O)C(N)CC(N)C3OC3OC(CN)C(O)C(O)C3N)C2O)C(N)C(O)C1O.O=S(=O)(O)O (configuration not stated) [Neomycin sulfate]
[reply] t

====

# System: HCI16 (cells of a triple-negative basal-like breast cancer xenograft)
# procedureDetails: cell viability (% of vehicle); higher = less cytotoxic
# conditionsUsed: 10 µM; 72 h
attributeMeasured: cell viability
// return a plain number; no unit text

[ask] Enter reported cell viability observed with HCI16 for CC1(C)CCC(c2ccc(Cl)cc2)=C(CN2CCN(c3ccc(C(=O)NS(=O)(=O)c4ccc(NC(CCN5CCOCC5)CSc5ccccc5)c(S(=O)(=O)C(F)(F)F)c4)cc3)CC2)C1 (configuration not stated)
[reply] 29.6

[ask] Short answer please: cell viability, HCI16, entry CNCCCC12CCC(c3ccccc31)c1ccccc12.Cl [Maprotiline HCl]
[reply] 80.2
